Measured MCC values are reported for all entries that follow.
Test method notes: Cytotoxicity against human HeLa cells assessed as alteration of normal cell morphology by microscopic analysis
Assay type: cell-based

INSERT INTO results (molecule, reported) VALUES
  ('CCN(CC)CCCC(C)Nc1ccnc2cc(Cl)ccc12 (centres undefined) [CHLOROQUINE]', '> 100 µM');

Recorded MCC of NC(=O)c1ncn([C@@H]2O[C@H](CO)[C@@H](O)[C@H]2O)n1 [RIBAVIRIN] , please.
> 250 µM

What about this molecule? CSc1nc(-c2ccc([N+](=O)[O-])cc2)c(C#N)c(N2CCN(c3ccnc4cc(Cl)ccc34)CC2)n1
> 100 µM

What about this molecule? CSc1nc(-c2ccccc2)c(C#N)c(N2CCN(c3ccnc4cc(Cl)ccc34)CC2)n1
> 100 µM
